- Test system: Trypanosoma cruzi
- Procedure Summary: Effect on oxygen uptake per mg of protein in Trypanosoma cruzi Tulahuen epimastigotes relative to control
- Assay type: functional
Measured Property: Activity (%)
Give just the numeric value; % need not be written.

### Prompt What does the data say about its Activity? Entry: CC1CS(=O)(=O)CCN1/N=C/c1ccc([N+](=O)[O-])o1 (stereo unspecified)
### Response 120.4

### Prompt May I ask what Activity has been recorded for CC1CCC2=C(O1)c1ccccc1C(=O)C2=O (stereo unspecified) ?
### Response 100.6

### Prompt # get_value(readout='Activity', item= CC(=O)OC1CC(C)(C)OC2=C1C(=O)c1ccccc1C2=O (stereo unspecified) )
### Response 135.5

### Prompt What does the record list as Activity for CC1(C)CCC2=C(O1)c1ccccc1C(=O)C2=O ?
### Response 107.5

### Prompt Query: Activity; subject: O=C(Cn1ccnc1[N+](=O)[O-])NCc1ccccc1
### Response 57.8

### Prompt Return reported Activity; argument: CC1(C)OC2=C(CC1O)C(=O)C(=O)c1ccccc12 (stereo unspecified)
### Response 96.8
